meta.source: PubChem BioAssay AID1159580

Test: chemical genetic growth profiling, strain panel (AID 1159580);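 note: tested at 20 µM; growth read once vehicle control cultures reached saturation at 30 °C; 1 = growth at the plate median or of vehicle wells; lower values mean less growth of the strain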
Conditions: S. cerevisiae deletion strains, growth OD, locus YDR388W, hits give low values
Among all 5,500 compounds or so, about 2,000 (36%) were called active. Another 18% or so got no clear call; they are omitted. The list shows a part of the results.
Recorded Metric: normalized growth
Respond with the number and no other words.

Below, each entry is followed by its recorded normalized growth result.
>>> quantitative_result("COc1ccc([C@H]2Oc3c(I)c(OC)cc(OC)c3C[C@@H]2O)cc1OC")
1.02
>>> quantitative_result("COc1ccc2c(c1)OC/C(=C\\c1ccc(OC)c(O)c1)C2=O")
0.913
>>> quantitative_result("CN1CC(=O)N=C1N")
0.997
>>> quantitative_result("C[C@@H]1O[C@@H](O[C@H]2[C@H](Oc3cc(O)c4c(=O)cc(-c5ccc(O)cc5)oc4c3)O[C@H](CO)[C@@H](O)[C@@H]2O)[C@H](O)[C@H](O)[C@H]1O")
0.996
>>> quantitative_result("COc1cc2c(cc1OC)C(=O)c1ccc(OC)c(OC)c1OCC(=O)C2")
1.01
>>> quantitative_result("Oc1cc(O)c2c(c1)O[C@H](c1ccc(O)c(O)c1)[C@H](O)C2")
0.995
>>> quantitative_result("CCC[C@H](N[C@@H](C)C(=O)N1[C@H](C(=O)O)C[C@@H]2CCCC[C@@H]21)C(=O)OCC")
1.03
>>> quantitative_result("C[C@]12CCC(=O)C=C1C=CC1C2CC[C@@]2(C)C1CC[C@@]21CCC(=O)O1 (stereo partly drawn)")
0.969

Problem: For C[n+]1c2cc(N)ccc2cc2ccc(N)cc21 , what is its reported normalized growth?
Result: 0.722

Problem: What about CC(=O)O[C@H]1C[C@@H](OC(C)=O)C(C)(C)C2CC(=O)[C@]3(C)C(CC[C@@]4(C)[C@H](C(=O)O)OC(=O)C5OC543)[C@]21C (stereo partly drawn) ?
Result: 0.989

Problem: What about Oc1cc(O)c2c(c1)O[C@H](c1ccc(O)c(O)c1)[C@@H](O)C2 ?
Result: 0.963

Problem: What about COc1ccc2c(c1)OC/C(=C/c1ccc(OC)c(OC)c1)C2=O ?
Result: 0.958
